target: Epsilon protein (His6-Epsilon) (Streptococcus pyogenes); construct: His6 (N); made in house; host or cells: E. coli BL21 (DE3); test: Competitive FP binding assay: acetylated peptides displace fluorescein-labeled peptide from Epsilon; settings: 500 nM Epsilon, 10 nM Fluo-IIb, unlabeled peptide 0.01-100 µM, 10 mM HEPES pH 7.5, 0.1% Tween-20, 384-well, duplicates in three independent experiments ± SD, read-out: IC50, competition with Fluo-IIb, 500 nM Epsilon
Sequence (Q57231 whole entry): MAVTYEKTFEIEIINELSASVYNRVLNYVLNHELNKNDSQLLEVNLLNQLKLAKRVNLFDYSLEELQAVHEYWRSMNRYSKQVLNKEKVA
pIC50: −log10 of the molar value. Ends that are not written are not given here.
metric-name: pIC50

Ac-GDTSLRSAEFEETQ [Ac-IIb] | 4.82

====

molecular target: Epsilon protein (His6-Epsilon) (Streptococcus pyogenes); construct: His6 (N); made in house; host or cells: E. coli BL21 (DE3); assay: Fluorescence polarization (FP) direct binding assay of fluorescein-labeled peptides to Epsilon; details: 10 nM fluorescein-labeled peptide titrated with Epsilon, 10 mM HEPES pH 7.5, 0.1% Tween-20, no NaCl, ex 470 nm/em 525 nm, EC50 taken as KD (Q close to 1), three independent experiments, n = 3 ± SD, SD, read-out: Binding constant KD
pKd: −log10 of the molar value. Peptide text beside a SMILES is read from it. * marks the point of attachment. 5FAM = O=C1OC2(c3ccc(O)cc3Oc3cc(O)ccc32)c2ccc(C(=O)*)cc21
metric-name: pKd

CC(C)C[C@H](NC(=O)[C@H](CO)NC(=O)[C@@H](NC(=O)[C@H](CC(=O)O)NC(=O)CNC(=O)[C@H](CO)NC(=O)CNC(=O)c1ccc2c(c1)C(=O)OC21c2ccc(O)cc2Oc2cc(O)ccc21)[C@@H](C)O)C(=O)N[C@@H](CCCNC(=N)N)C(=O)N[C@@H](CO)C(=O)N[C@@H](C)C(=O)N[C@@H](CCC(=O)O)C(=O)N[C@@H](Cc1ccccc1)C(=O)N[C@@H](CCC(=O)O)C(=O)N[C@@H](CCC(=O)O)C(=O)N[C@H](C(=O)N[C@@H](CCC(N)=O)C(=O)O)[C@@H](C)O [Fluo-IIc] (5FAM-GSGDTSLRSAEFEETQ-OH) | 6.87
CC(C)C[C@H](NC(=O)c1ccc2c(c1)C(=O)OC21c2ccc(O)cc2Oc2cc(O)ccc21)C(=O)N[C@@H](CCCNC(=N)N)C(=O)N[C@@H](CO)C(=O)N[C@@H](C)C(=O)N[C@@H](CCC(=O)O)C(=O)N[C@@H](Cc1ccccc1)C(=O)N[C@@H](CCC(=O)O)C(=O)N[C@@H](CCC(=O)O)C(=O)N[C@H](C(=O)N[C@@H](CCC(N)=O)C(=O)O)[C@@H](C)O [Fluo-IIa] (5FAM-LRSAEFEETQ-OH) | 6.77
CC[C@H](C)[C@H](NC(=O)[C@H](CC(C)C)NC(=O)[C@H](CCC(=O)O)NC(=O)[C@H](CCC(=O)O)NC(=O)[C@H](Cc1c[nH]cn1)NC(=O)[C@H](CC(N)=O)NC(=O)[C@H](CC(=O)O)NC(=O)[C@H](CC(N)=O)NC(=O)[C@H](CC(C)C)NC(=O)c1ccc2c(c1)C(=O)OC21c2ccc(O)cc2Oc2cc(O)ccc21)C(=O)N[C@@H](CCC(N)=O)C(=O)O [Fluo-Ia] (5FAM-LNDNHEELIQ-OH) | 7.13
